# tgt: human CCR2 (Homo sapiens)
# Sequence (P41597 1-360 isoform P41597-2): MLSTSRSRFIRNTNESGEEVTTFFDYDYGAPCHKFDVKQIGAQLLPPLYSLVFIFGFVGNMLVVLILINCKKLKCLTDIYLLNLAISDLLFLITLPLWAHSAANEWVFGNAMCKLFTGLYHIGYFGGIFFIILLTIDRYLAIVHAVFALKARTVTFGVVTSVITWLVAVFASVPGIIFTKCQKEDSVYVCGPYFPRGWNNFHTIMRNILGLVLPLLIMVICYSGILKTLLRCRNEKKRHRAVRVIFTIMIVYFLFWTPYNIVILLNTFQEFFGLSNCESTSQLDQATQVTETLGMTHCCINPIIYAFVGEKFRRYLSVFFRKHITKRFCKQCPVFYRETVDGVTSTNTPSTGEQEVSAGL
# experimental.details: Functional Ca2+ release test (B-1)
# measurement.conditions: Chem-1 cell line transfected with human CCR2; 50% inhibition of the MCP-1 effect, MCP-1 at EC50 (about 5 nM); in some cases means of several determinations
Hi there, I'd appreciate the recorded log10 of IC50 for every entry that follows.
Annotation: log10 of IC50, nM basis.

Documented log10 of IC50 of COc1cccc(-c2nc(C(F)(F)F)c(Oc3ccc(Cl)c(C(F)(F)F)c3)c(=O)[nH]2)n1 [Example 149] : -0.15

For reference, reported log10 of IC50 for Nc1ccc(-c2nc(C(F)(F)F)c(Oc3ccc(Cl)c(C(F)(F)F)c3)c(=O)[nH]2)nc1 [Example 113] stands at -0.40

The reported value for COc1cnn(-c2nc(C(F)(F)F)c(Oc3ccc(Cl)c(Cl)c3)c(=O)[nH]2)c1 [Example 249] in terms of log10 of IC50 is -0.05

Measured log10 of IC50, CCc1cc(-c2nc(C(F)(F)F)c(Oc3ccc(Cl)c(C(F)(F)F)c3)c(=O)[nH]2)no1 [Example 217] : 0.26

O=c1[nH]c(-c2nsc(Cl)c2Cl)nc(C(F)(F)F)c1Oc1ccc(Cl)c(Cl)c1 [Example 227] has a reported log10 of IC50 of 0.81

Given item Cn1nc(-c2nc(C(F)(F)F)c(Oc3ccc(Cl)c(C(F)(F)F)c3)c(=O)[nH]2)c2ccccc21 [Example 137] , the value recorded as its log10 of IC50 is 1.20

log10 of IC50 reading for O=c1[nH]c(-n2cccn2)nc(C(F)(F)F)c1Cc1ccc(Cl)c(C(F)(F)F)c1 [Example 71] : 0.48

Values compiled from patent US20160237059A1.
